assay: Drug repurposing screens with cells derived from glioblastoma tumor samples (AID 1345199); conditions: GBM patient neurospheres viability, ATP luminescence, 48 h; at 46.1 µM (top of the series); tumour line C; further: on the % scale 0 is the no-effect control and ±100 the full control effect
Inconclusive results are not listed.
Please respond with reported activity, negative = cell killing for every item in the list.
# output: bare number, implied unit %

Exercise: Recorded activity, negative = cell killing for C[C@@H]1[C@H](O)[C@@H](C)/C=C/C=C\C=C\C=C\C=C\C=C\C=C\[C@H](O[C@@H]2O[C@H](C)[C@@H](O)[C@H](N)[C@@H]2O)C[C@@H]2O[C@](O)(C[C@@H](O)C[C@@H](O)[C@H](O)CC[C@@H](O)C[C@@H](O)CC(=O)O[C@H]1C)C[C@H](O)[C@H]2C(=O)O (stereo in doubt) , please?
Solution: -5.87

Exercise: Entry CC1=CCC(C(C)(C)O)CC1 (configuration not stated) : reported activity, negative = cell killing = ?
Solution: -3.81

Exercise: Fill in: activity, negative = cell killing of CC1=C(/C=C/C(C)=C/C=C/C(C)=C/C=C/C=C(C)/C=C/C=C(C)/C=C/C2=C(C)CCCC2(C)C)C(C)(C)CCC1 is ___
Solution: 5.35

Exercise: I have this molecule here, C=CCSSSCC=C , and I need its recorded activity, negative = cell killing.
Solution: -8.17

Exercise: What value of activity, negative = cell killing has been reported for the following molecule? CC(=O)OCC(=O)[C@@]1(O)CC[C@H]2[C@@H]3C[C@H](C)C4=CC(=O)C=C[C@]4(C)[C@H]3[C@@H](O)C[C@@]21C
Solution: 1.15

Exercise: Find the recorded activity, negative = cell killing belonging to COc1cc([C@@H]2c3cc4c(cc3[C@@H](O[C@@H]3O[C@@H]5CO[C@@H](C)O[C@H]5[C@H](O)[C@H]3O)[C@H]3COC(=O)[C@H]23)OCO4)cc(OC)c1O and report it.
Solution: -16.4

Exercise: What does the data say about its activity, negative = cell killing? Entry: O=C(O)CN(CCN(CC(=O)O)CC(=O)O)CC(=O)O
Solution: -16.4

meta.source: PubChem BioAssay (NCATS)
